System: MOLT-4 cells
Assay: MOLT-4 cell viability using MTT assay
Format: cell-based
Conditions: Homo sapiens, MOLT-4, 48 h, 48 h exposure
Here the recorded log10 of IC50 is given for each entry.
Scale: decimal log of IC50, IC50 in nM.

Consider the following illustrative entries.
Cc1c(Nc2nc3ccccc3s2)nnc2c1CCCN2c1nc(C(=O)O)c(CCCOc2ccc(C34CC(CN(C)C)(C3)C4)cc2F)s1	-0.34
Cc1c(Nc2nc3ccccc3s2)nnc2c1CCCN2c1nc(C(=O)O)c(CCCOc2ccc(C#CC(C)(C)N3CCCC3)cc2F)s1	-0.76
CCN(C)CC#Cc1ccc(OCCCc2sc(N3CCCc4c3nnc(Nc3nc5ccccc5s3)c4C)nc2C(=O)O)c(F)c1	-0.74
Cc1c(Nc2nc3ccccc3s2)nnc2c1CCCN2c1nc(C(=O)O)c(CCCOc2cc3c(cc2F)CCN(C)C3)s1	0.30
Cc1c(Nc2nc3ccccc3s2)nnc2c1CCCN2c1ccc(-c2cnn(CC34CC5(C)CC(C)(CC(CCCN6CCN(C)CC6)(C5)C3)C4)c2C)c(C(=O)O)n1	-0.54

Let us examine a further case.
Inquiry: Give reported log10 of IC50 value for CNCCOC1Cc2c(nnc(Nc3nc4ccccc4s3)c2C)N(c2nc(C(=O)O)c(CCCOc3ccc(C#CCN(C)C)cc3F)s2)C1 (stereo not drawn)
Reply text: 1.42

* * *

Ki by entry:
Biological target: His-His-(EK)-hsBCLXL(2-197)[N197C] (Homo sapiens (Human), UniProt Q07817, N197C)
Sequence (Q07817 2-197 N197C): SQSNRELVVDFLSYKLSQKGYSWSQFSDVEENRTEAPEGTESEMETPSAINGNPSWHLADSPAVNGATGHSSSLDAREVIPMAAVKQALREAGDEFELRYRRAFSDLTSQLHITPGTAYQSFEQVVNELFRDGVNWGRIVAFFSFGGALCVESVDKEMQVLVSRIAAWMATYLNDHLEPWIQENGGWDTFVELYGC
Assay: Fluorescence quenching assay
Settings: 1 nM Cy5-labelled protein, 400 nM PUMA peptide, 2 hours at 23° C.; KI determined from IC50
Use pM as the unit, but write only the number.

CCN(C)CC#Cc1ccc(OCCCc2sc(N3CCCc4c3nnc(Nc3nc5ccccc5s3)c4C)nc2C(=O)O)c(F)c1 [Example 88]	10

Inquiry: Answer briefly: Ki recorded on His-His-(EK)-hsBCLXL(2-197)[N197C] (Homo sapiens (Human), UniProt Q07817, N197C) for CNCC#Cc1ccc(OCCCc2sc(N3CC(O)Cc4c3nnc(Nc3nc5ccccc5s3)c4C)nc2C(=O)O)c(F)c1 (stereo not drawn) [Example 38]
Reply text: 2.9

Inquiry: Tell me Ki of Cc1c(Nc2nc3ccccc3s2)nnc2c1CCCN2c1ccc(-c2cnn(CC34CC5(C)CC(C)(C3)CC(OCCN(C)CCCCO)(C5)C4)c2C)c(C(=O)O)n1 [Example 153] when tested on His-His-(EK)-hsBCLXL(2-197)[N197C] (Homo sapiens (Human), UniProt Q07817, N197C).
Reply text: 1.2

Inquiry: Identify measured Ki obtained with His-His-(EK)-hsBCLXL(2-197)[N197C] (Homo sapiens (Human), UniProt Q07817, N197C) for Cc1c(Nc2nc3ccccc3s2)nnc2c1CCN2c1nc(C(=O)O)c(CCCOc2ccc(C#CCN(C)C)cc2F)s1 [Example 22] .
Reply text: 25

Inquiry: Name the recorded Ki of Cc1c(Nc2nc3ccccc3s2)nnc2c1CCCN2c1ccc(-c2cnn(CC34CC5(C)CC(C)(CC(CCCNCC[C@H](O)CO)(C5)C3)C4)c2C)c(C(=O)O)n1 [Example 172] , assay system His-His-(EK)-hsBCLXL(2-197)[N197C] (Homo sapiens (Human), UniProt Q07817, N197C).
Reply text: 2

Inquiry: Provide Ki, tested on His-His-(EK)-hsBCLXL(2-197)[N197C] (Homo sapiens (Human), UniProt Q07817, N197C), for CNCCCc1ccc(OCCCc2sc(N3CCCc4c3nnc(Nc3nc5ccccc5s3)c4C)nc2C(=O)O)c(F)c1 [Example 34] .
Reply text: 1.9

Inquiry: GET Ki where system = His-His-(EK)-hsBCLXL(2-197)[N197C] (Homo sapiens (Human), UniProt Q07817, N197C) and item = Cc1c(Nc2nc3ccccc3s2)nnc2c1CCCN2c1nc(C(=O)O)c(CCCOc2ccc(C#CCN3CCC3)cc2F)s1 [Example 45]
Reply text: 4.9

Inquiry: # return Ki for Cc1c(Nc2nc3ccccc3s2)nnc2c1CCCN2c1nc(C(=O)O)c(CCCOc2ccc(CCCN3CCC3)cc2F)s1 [Example 67] , test system: His-His-(EK)-hsBCLXL(2-197)[N197C] (Homo sapiens (Human), UniProt Q07817, N197C)
Reply text: 3.2

Inquiry: Recall the reported Ki of Cc1c(Nc2nc3ccccc3s2)nnc2c1CCCN2c1nc(C(=O)O)c(CCCOc2ccc(C#CCN3CCC(N4CCCCC4)CC3)cc2F)s1 [Example 57] when tested on His-His-(EK)-hsBCLXL(2-197)[N197C] (Homo sapiens (Human), UniProt Q07817, N197C).
Reply text: 3

Inquiry: Write down measured Ki (His-His-(EK)-hsBCLXL(2-197)[N197C] (Homo sapiens (Human), UniProt Q07817, N197C)) for this compound. Cc1c(Nc2nc3ccccc3s2)nnc2c1CCCN2c1ccc(-c2cnn(CC34CC5(C)CC(C)(C3)CC(OCCNCCC(O)CO)(C5)C4)c2C)c(C(=O)O)n1 (stereo in doubt) [Example 92]
Reply text: 1.7

Inquiry: Quote His-His-(EK)-hsBCLXL(2-197)[N197C] (Homo sapiens (Human), UniProt Q07817, N197C) Ki for entry Cc1c(Nc2nc3ccccc3s2)nnc2c1CCCN2c1nc(C(=O)O)c(CCCOc2ccc(CCCN3CCOCC3)cc2F)s1 [Example 70] .
Reply text: 17

Inquiry: Retrieve Ki on His-His-(EK)-hsBCLXL(2-197)[N197C] (Homo sapiens (Human), UniProt Q07817, N197C); query Cc1c(Nc2nc3ccccc3s2)nnc2c1CCCN2c1nc(C(=O)O)c(CCCOc2ccc(C#CCN(C)C)cc2F)s1 [Example 27]
Reply text: 8.5

Inquiry: Please look at Cc1c(Nc2nc3cccc(F)c3s2)nnc2c1CCCN2c1nc(C(=O)O)c(CCCOc2ccc(C#CCN(C)C)cc2F)s1 [Example 82] and tell me its recorded Ki on His-His-(EK)-hsBCLXL(2-197)[N197C] (Homo sapiens (Human), UniProt Q07817, N197C).
Reply text: 23

Inquiry: Identify measured Ki obtained with His-His-(EK)-hsBCLXL(2-197)[N197C] (Homo sapiens (Human), UniProt Q07817, N197C) for Cc1c(Nc2nc3ccccc3s2)nnc2c1CCCN2c1nc(C(=O)O)c(CCCOc2ccc(C#CCN3C[C@H]4C[C@H]4C3)cc2F)s1 [Example 56] .
Reply text: 49

Inquiry: Report Ki under test system His-His-(EK)-hsBCLXL(2-197)[N197C] (Homo sapiens (Human), UniProt Q07817, N197C) for Cc1c(Nc2nc3ccccc3s2)nnc2c1CCCN2c1nc(C(=O)O)c(CCCOc2ccc(C#CCN3C[C@@H](C)N[C@@H](C)C3)cc2F)s1 [Example 89] .
Reply text: 2.8

Inquiry: Return reported Ki for target or system His-His-(EK)-hsBCLXL(2-197)[N197C] (Homo sapiens (Human), UniProt Q07817, N197C), item Cc1c(Nc2nc3ccccc3s2)nnc2c1CCCN2c1ccc(-c2cnn(CC34CC5(C)CC(C)(C3)CC(OCCN(C)CC[C@@H](O)CO)(C5)C4)c2C)c(C(=O)O)n1 [Example 130] .
Reply text: 2.3

Inquiry: Give Ki for Cc1c(Nc2nc3ccccc3s2)nnc2c1CCCN2c1ccc(-c2cnn(CC34CC5(C)CC(C)(C3)CC(OCCN3CCOCC3)(C5)C4)c2C)c(C(=O)O)n1 [Example 142] tested on His-His-(EK)-hsBCLXL(2-197)[N197C] (Homo sapiens (Human), UniProt Q07817, N197C).
Reply text: 2.6

Inquiry: Recall the reported Ki of Cc1c(Nc2nc3ccccc3s2)nnc2c1ccn2-c1ccc(-c2cnn(CC34CC5CC(CC(C5)C3)C4)c2C)c(C(=O)O)n1 [Example 23] on His-His-(EK)-hsBCLXL(2-197)[N197C] (Homo sapiens (Human), UniProt Q07817, N197C) and write it down.
Reply text: 51

* * *

Molecular target: His-His-(EK)-hsBCLXL(2-197)[N197C] (Homo sapiens (Human), UniProt Q07817, N197C)
Experiment: Fluorescence quenching assay
Settings: 1 nM Cy5-labelled protein, 400 nM PUMA peptide, 2 hours at 23° C.; KI determined from IC50
Measured Ki by item
Dear colleague, please return just the value in pM, with no unit written.

Study these solved cases before continuing.
Cc1c(Nc2nc3ccccc3s2)nnc2c1CCCN2c1nc(C(=O)O)c(CCCOc2ccc(CCCN3CCC4(CC3)CNC(=O)C4)cc2F)s1	2.5
Cc1c(Nc2nc3ccccc3s2)nnc2c1CCCN2c1nc(C(=O)O)c(CCCOc2ccc(C#CCN(C(C)C)C(C)C)cc2F)s1	19
Cc1c(Nc2nc3ccccc3s2)nnc2c1CCCN2c1nc(C(=O)O)c(CCCOc2ccc(C#CCN3CCCC3)cc2F)s1	2.8
Cc1c(Nc2nc3ccccc3s2)nnc2c1CCCN2c1ccc(-c2cnn(CC34CC5(C)CC(C)(C3)CC(OCCN(CCO)CCO)(C5)C4)c2C)c(C(=O)O)n1	2.8
CNCCOC1Cc2c(nnc(Nc3nc4ccccc4s3)c2C)N(c2nc(C(=O)O)c(CCCOc3ccc(C#CCN(C)C)cc3F)s2)C1 (centres unmarked)	5
Cc1c(Nc2nc3ccccc3s2)nnc2c1CCCN2c1nc(C(=O)O)c(CCCOc2ccc(C#CCN3CCNCC3)cc2F)s1	5.2

Consider the record given below.
Inquiry: State its Ki: Cc1c(Nc2nc3ccccc3s2)nnc2c1CCCN2c1ccc(-c2cnn(CC34CC5(C)CC(C)(C3)CC(OCCNCCS(=O)(=O)O)(C5)C4)c2C)c(C(=O)O)n1
Reply text: 2.2
